assay.text: Human HepG2 cell viability assay in 384 well format
Assay type: toxicity, cell-based
Parameters: dose 125 nL, time 70.5 hour; concentration not given beside the values
measurement.setup: HepG2 cells, read-out: Inhibition
Answer each item with its documented cytotoxicity at 70.5 h.
Give bare numbers, in %.

Please look at the items below and tell me cytotoxicity at 70.5 h for each one, in order.
1. Cc1nc2c(c(NCCc3nccs3)n1)CCN(CC1CC1)CC2
2. c1cncc(OCC2CC3(CCN(CC4CC4)CC3)CO2)c1 (stereo not given)
3. CCc1ncc(CN2CCCC3(CCC(=O)N(CCC(C)C)C3)C2)cn1 (stereo not given)

[-14.3, -10.5, 1.46]

----------
assay.text: Human HepG2 cell viability assay in 384 well format
Assay type: toxicity, cell-based
Set-up: dose 125 nL, time 70.5 hour; concentration not given beside the values
measurement.setup: HepG2 cells, read-out: Inhibition
metric: cytotoxicity at 70.5 h (%)
Give bare numbers, in %.

The following compounds have reported results that may help.
INSERT INTO assay_data (compound, reported_result) VALUES
  ('CC(C)N(C(=O)CCc1cccc(F)c1)C1CCOCC1', -4.3),
  ('COc1ccc(NC(=O)CCc2c(C)nc3cc(O)nn3c2C)cn1', -2.2),
  ('CCC(C)N(Cc1cc(C)n[nH]1)Cc1ccccc1Cl (stereo not given)', -10.8),
  ('CC(Cn1cccn1)NC(=O)NCCCN1CCc2ccccc2C1 (stereo not given)', 14.2),
  ('COCc1ncn2c1CN(C(=O)c1ccc[nH]1)CC2', -4.65);

Please look at the items below and tell me cytotoxicity at 70.5 h for each one, in order.
1. Cc1ccc2nc(CNCCCN3CCCC3)cc(O)c2c1
2. CCc1ccccc1OCCCN(C)C(=O)C1CCCN1C(N)=O (stereo not given)
3. COC(=O)c1ccc(N(C(=O)c2cscn2)C(C)C)c(C)c1
4. CCS(=O)(=O)N1CCC(c2nnc(CN3CCCC3)n2C2CC2)CC1
5. O=C(C1CN(c2ncc(F)cn2)CC12CCOCC2)N1CC=CC1 (stereo not given)
6. Cc1ccc([C@@H]2CN(S(=O)(=O)c3ccccc3)C[C@H]2N(C)C)cc1
7. COCC(=O)N1CC[C@@H](O)[C@@H]1Cc1ccccc1
8. CCn1cnnc1CNC(=O)NC(C)C(C)C (stereo not given)

-9.2
-8.96
-4.28
-11.4
-5.64
-9.61
5.48
-17.7

Please look at the items below and tell me cytotoxicity at 70.5 h for each one, in order.
1. O=C(Nc1cnn(-c2ccccc2Cl)c1)N[C@@H]1C=C[C@H](CO)C1
2. COc1ccc(C)cc1CSCCn1nc2ccccn2c1=O

[-5.42, -11.5]

----------
assay.text: Human HepG2 cell viability assay in 384 well format
Type: toxicity, cell-based
Design: dose 125 nL, time 70.5 hour; concentration not given beside the values
measurement.setup: HepG2 cells, read-out: Inhibition
Answer each item with its documented cytotoxicity at 70.5 h.
Give bare numbers, in %.

INSERT INTO measurements (compound, metric, reported_result) VALUES
  ('Cc1ccccc1N1CCN(C(=O)c2ccc[nH]2)C(C)C1 (stereo unspecified)', 'cytotoxicity at 70.5 h', -2.71),
  ('O=C(c1noc2c1CCCC2)N1CCCC(c2nccs2)C1 (stereo unspecified)', 'cytotoxicity at 70.5 h', -3.76),
  ('COCCNC(=O)Nc1ccc(-n2cncn2)c(F)c1', 'cytotoxicity at 70.5 h', 40.1),
  ('CN(C)CCOc1ccccc1N1CCN(C(=O)c2ccoc2)CC1', 'cytotoxicity at 70.5 h', 2.2),
  ('Cc1cccc(NC(=O)N2CCOCC(CN(C)C)C2)c1C (stereo unspecified)', 'cytotoxicity at 70.5 h', -6.8),
  ('Fc1cnc(N2CC[C@@H]3CN(Cc4ccncc4)CCO[C@@H]3C2)nc1', 'cytotoxicity at 70.5 h', 7.83),
  ('O=C(c1cccs1)N1CCC[C@]2(C[C@@H](OCc3ccncc3)CO2)C1', 'cytotoxicity at 70.5 h', -4.03),
  ('O=C(COCC1CC1)Nc1ncccc1O', 'cytotoxicity at 70.5 h', -6.89),
  ('Cc1nc(O)c2nnn(C[C@H]3CCCN3C(=O)c3cccc(F)c3)c2n1', 'cytotoxicity at 70.5 h', -7.83),
  ('CN(CCNC(=O)N1CCN(Cc2ccon2)CC1)C1CCCC1', 'cytotoxicity at 70.5 h', -1.48);

Please look at the items below and tell me cytotoxicity at 70.5 h for each one, in order.
1. CNC(=O)c1cc2c(nc1NCC(C)C)CCN(S(=O)(=O)C1CC1)CC2
2. CN(C)Cc1nnc(C2CCCN(Cc3ccc(Cl)s3)C2)n1C (stereo unspecified)
3. COc1ccc2[nH]nc(CN3CCN(Cc4cccc(F)c4)CC3)c2c1
4. COc1cc(N2CCC(c3nccn3CCCN(C)C)CC2)nc(N)n1
5. CN(C)c1ncc(-c2cc(C(=O)O)n(CC3CC3)c2)cn1
6. Cc1nc(C2(NCc3ccc(C#N)cc3F)CCCC2)no1

1. -6.3
2. 5.14
3. 4.06
4. -1.61
5. -4.19
6. -18.6
